Below, each entry is listed alongside its reported pEC50.
TESTED_SYSTEM: M4 muscarinic receptor (Homo sapiens, UniProt P08173)
METHOD_SUMMARY: cell-based
STATED_CONDITIONS: M4, agonism set-up
pEC50: −log10 of the molar value.

- STRUCTURE_SMILES_STRING: "CN1CCN(C2=Nc3cc(Cl)c(F)cc3Nc3ccccc32)CC1"
  pEC50: 4.80
- STRUCTURE_SMILES_STRING: "Fc1cc2c(cc1Cl)N=C(N1CCNCC1)c1ccccc1N2"
  pEC50: 5.49

###

TESTED_SYSTEM: H4 receptor (Homo sapiens)
Sequence (Q9H3N8 whole entry): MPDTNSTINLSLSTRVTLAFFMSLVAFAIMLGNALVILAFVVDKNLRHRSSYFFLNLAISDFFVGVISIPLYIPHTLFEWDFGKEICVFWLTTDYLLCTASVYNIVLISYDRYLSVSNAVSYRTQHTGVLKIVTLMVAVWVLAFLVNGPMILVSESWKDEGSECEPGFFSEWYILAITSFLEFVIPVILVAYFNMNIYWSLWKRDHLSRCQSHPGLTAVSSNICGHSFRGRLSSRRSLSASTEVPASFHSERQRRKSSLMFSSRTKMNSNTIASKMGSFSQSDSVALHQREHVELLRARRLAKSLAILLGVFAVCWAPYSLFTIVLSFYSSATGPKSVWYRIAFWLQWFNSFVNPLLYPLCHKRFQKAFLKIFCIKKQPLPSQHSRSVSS
METHOD_SUMMARY: H4 histamine receptor functional experiment, agonism set-up (cell conductibility)
pEC50: −log10 of the molar value.

- COMPOUND: "Clc1ccc2c(c1)N=C(N1CCNCC1)c1ccccc1N2 [Desmethylclozapine, N-desmethylclozapine, reference compound]"
  TESTED_SYSTEM: "H4 receptor (Homo sapiens)"
  pEC50: 5.68
- COMPOUND: "CN1CCN(C2=Nc3cc(Cl)c(F)cc3Nc3ccccc32)CC1"
  TESTED_SYSTEM: "H4 receptor (Homo sapiens)"
  pEC50: 6.77
- COMPOUND: "Fc1cc2c(cc1Cl)N=C(N1CCNCC1)c1ccccc1N2"
  TESTED_SYSTEM: "H4 receptor (Homo sapiens)"
  pEC50: 5.70

###

TESTED_SYSTEM: M4 muscarinic receptor (Homo sapiens)
Sequence (P08173 1-479): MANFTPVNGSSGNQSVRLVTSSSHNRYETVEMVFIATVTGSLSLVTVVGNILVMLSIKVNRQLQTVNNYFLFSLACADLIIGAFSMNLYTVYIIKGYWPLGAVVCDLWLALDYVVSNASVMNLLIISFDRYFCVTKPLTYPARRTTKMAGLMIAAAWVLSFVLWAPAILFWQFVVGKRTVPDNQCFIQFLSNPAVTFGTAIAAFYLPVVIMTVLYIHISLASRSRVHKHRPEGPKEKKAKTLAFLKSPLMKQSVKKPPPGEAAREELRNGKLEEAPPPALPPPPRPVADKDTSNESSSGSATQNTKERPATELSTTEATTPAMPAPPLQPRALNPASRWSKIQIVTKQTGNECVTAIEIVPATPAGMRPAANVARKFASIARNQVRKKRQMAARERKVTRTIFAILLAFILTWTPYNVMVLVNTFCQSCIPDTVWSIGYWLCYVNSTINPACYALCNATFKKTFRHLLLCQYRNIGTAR
ENDPOINT: IC50

- STRUCTURE_SMILES_STRING: "CN1CCN(C2=Nc3cc(Cl)c(F)cc3Nc3ccccc32)CC1"
  VALUE: "4.8 µM"
